test: Drug concentration in Balb/c mouse at 3 mg/kg, iv after 3 hrs; format: ADME, organism-based; details: in vivo, read-out: Drug uptake

# structure-smiles, concentration at 3 h / nM
measured = [
    ("CNC(=O)c1cnc(Nc2ccc(F)cn2)cc1Nc1ccccc1S(C)(=O)=O", 530),
    ("[2H]C([2H])([2H])NC(=O)c1cnc(Nc2ccc(F)cn2)cc1Nc1ccccc1S(C)(=O)=O", 470),
]

* * *

test: Drug concentration in IL12/IL18-induced C57BL/6 mouse serum at 10 mg/kg, po pretreated for 1 hr followed by IL12 stimulation and subsequent IL18 addition and measured after 5 hrs; type: ADME, organism-based; settings: read-out: Drug uptake
readout-type: concentration at 5 h (nM)

# structure-smiles, readout-type, unit-string, measurement
rows = [
    ("[2H]C([2H])([2H])NC(=O)c1nnc(Nc2ccccn2)cc1Nc1ccccc1S(C)(=O)=O", "concentration at 5 h", "nM", 503),
]
